Hey, just so you know, these numbers are from the supplement of paper PMC10567573.

# method: protein stability index of a GFP-peptide fusion (GPS, HEK-293T) (PSI 1-6); higher = more stable;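 note: 24-mer peptide tiles fused after GFP, lentivirally expressed, FACS-sorted into six equal bins by GFP/DsRed ratio, decoded by Illumina sequencing, PSI is the read-weighted mean bin number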
# test.context: treatment: MLN4924 1 uM, 8 h; c terminus: a fixed tail appended
Returns one of 1 (yes) or 0 (no); 1 (yes) when protein stability index is >= 4.

input.sequence: QAKQEMNESRRQIQSLTCEVDGLR [PRPH]
label.class: 1 (yes)
--
input.sequence: PHHHSFYDFIVTKARGKSGPLFNF [FAM50A]
label.class: 0 (no)
--
input.sequence: HSRRHESYSRGYSYHDGYGEALGR [RBMY1A1]
label.class: 0 (no)

* * *

# method: protein stability index of a GFP-peptide fusion (GPS, HEK-293T) (PSI 1-6); higher = more stable
# test.context: treatment: MLN4924 1 uM, 8 h; c terminus: a fixed tail appended
Returns one of Y or N; Y when protein stability index is >= 4.

input.sequence: QSSKRSSRSVEDDKEGHLVCRIGD [CLK3]
label.class: Y
--
input.sequence: QHLKSKALRERWLLEGTPSSASEG [PALM]
label.class: Y
--
input.sequence: SEVESAVWYVKKFGRYLEHLEVKF [FBXO39]
label.class: N
--
input.sequence: YSSQLSQVQSLITNVESQLAEIRC [KRT34]
label.class: N
--
input.sequence: LSVEADINGLRRVLDELTLARADL [KRT17]
label.class: N
--
input.sequence: RFELINIDDLEDDPVVNGERSGCA [TCF25]
label.class: Y
--
input.sequence: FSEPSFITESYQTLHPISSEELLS [ETS1]
label.class: N
--
input.sequence: GLKGRTLYPAVSAVWGQCQVRIRY [SPSB2]
label.class: N
--
input.sequence: FSRAGISEAQLTDAETSKLIYDFI [WAS]
label.class: N
--
input.sequence: AEDFSTMDEISEKLKKGICEALED [MATN2]
label.class: Y
--
input.sequence: HLADLVSYSIQKVIGFAKMIPGFR [VDR]
label.class: Y
--
input.sequence: ASGSTQRQPPPPAPQHPQPGSQAL [FBXO28]
label.class: Y
--
input.sequence: PGEVVPSGESGLRRRGSDPASGEV [TMEM40]
label.class: Y
--
input.sequence: PKGWRQLAQEAEAWLNYPCFKNWD [OAS1]
label.class: N
--
input.sequence: ALGAMWKLHKSQLSQALNGLSDRA [TRIM9]
label.class: N
--
input.sequence: QILELLVLEQFLTILPQEIQSRVQ [ZNF263]
label.class: N
--
input.sequence: MPSETLWEIAKAEVEKRGINGSEG [DYNC2LI1]
label.class: Y
--
input.sequence: PGSQALPAPALAPDQLPQNNTLVA [FBXO28]
label.class: Y
--
input.sequence: LSEEERSEKAMLRSRIEEQSQLIC [CCDC89]
label.class: Y
--
input.sequence: QYWPSRGTETHGLVQVTLLDTVEL [PTPRD]
label.class: N
--
input.sequence: DKDDEEKPKIEDVGSDEEDDSGKD [HSP90AB1]
label.class: Y
--
input.sequence: VYLSPRDDGYSTKDSYSSRDYPSS [RBMX]
label.class: N
--
input.sequence: RELTGLKALYETELADARRALDDT [LMNB1]
label.class: Y
--
input.sequence: GAGAGAPGGGRLLLSTSLDAKDEL [INTS3]
label.class: Y
--
input.sequence: ARPSETFARFCKSQESALGNTVPA [DNAAF3]
label.class: N

* * *

# method: protein stability index of a GFP-peptide fusion (GPS, HEK-293T) (PSI 1-6); higher = more stable
# test.context: treatment: DMSO; c terminus: a fixed tail appended
Returns one of rule met or rule not met; rule met when protein stability index is >= 4.

input.sequence: PASPNPFVHELHLSRLQRVKFCLL [LPCAT4]
label.class: rule not met
//
input.sequence: RDVAAWGRARATGGDLEEQQHAEG [DNAAF3]
label.class: rule met
//
input.sequence: TDKLVTPGKYFSAAEYHAQRLKAV [IQUB]
label.class: rule not met
//
input.sequence: ENILADNSVNDQTKILVVNAAYFV [SERPINB5]
label.class: rule not met
//
input.sequence: QAKQEMNESRRQIQSLTCEVDGLR [PRPH]
label.class: rule met

* * *

Measured protein stability index by item
# method: protein stability index of a GFP-peptide fusion (GPS, HEK-293T) (PSI 1-6); higher = more stable
# test.context: treatment: MLN4924 1 uM, 8 h; c terminus: a fixed tail appended

input.sequence: NKKNILLRLLREEEYVAPPRGPLP [TRAF3IP2]
protein stability index: 3.06
--
input.sequence: RLLSYRGERVAARGYWGDIATGPF [DNAAF3]
protein stability index: 2.18
--
input.sequence: ERKGWLAPSPGVKEQAIWKHPQPA [PKD2L1]
protein stability index: 3.73
--
input.sequence: LRPTLLLTSLHHFMHSRNLYILGN [PNLIPRP1]
protein stability index: 3.13
--
input.sequence: EELAKKRFKDKSSEEAVREVHRLI [TPPP]
protein stability index: 3.41
--
input.sequence: TLGGLNPSPSEVITPWTPSPSEKN [SMTNL2]
protein stability index: 5.08
--
input.sequence: LVPALRLPGRKLVSSAVSPSIIPQ [INTS4]
protein stability index: 2.46
--
input.sequence: TQLFIGGVTGWCTGFIFQKVGKLA [FUNDC2]
protein stability index: 2.32
--
input.sequence: SDGRTFLSRCEFQRAKCKDPQLEI [SMOC2]
protein stability index: 2.93
--
input.sequence: KWMLGAEDLTPEDDMPIGRNVLEL [PTPRD]
protein stability index: 3.92
--
input.sequence: YQKAAEEVEAKFKRYESHPVCADL [CHCHD3]
protein stability index: 4.25
--
input.sequence: AGSSHTPSSQSSSGGGRDSSSSIL [ELOA2]
protein stability index: 4.78
--
input.sequence: SEQEHFLIVPFGLLYSEVTASSLV [ADD1]
protein stability index: 2.92
--
input.sequence: IVANTMPTHLSNGQMSTPETPQPS [HNF4A]
protein stability index: 4.51
--
input.sequence: GSKYYNVEAMYCYLRCIQSEVSFE [SMG5]
protein stability index: 2.1
--
input.sequence: NCSDFLESKGCFANTTPSGKSVSS [SPATS1]
protein stability index: 4.35
--
input.sequence: NIQIIEYEKKQTLGQNDTGFSCDG [BTBD1]
protein stability index: 4.03
--
input.sequence: LVETAIQSLDEPGGATFLLTAKQL [TRIM63]
protein stability index: 2.66
--
input.sequence: LESPIDPQPLSFKEPPLLLGVLHP [APMAP]
protein stability index: 3.69
--
input.sequence: VPAQKFSALTFLRVDQDKDKDCSL [SMOC2]
protein stability index: 4.52
--
input.sequence: ELSEEGAEGRVVGRKDITSILRAP [MOSPD3]
protein stability index: 4.78
--
input.sequence: TEMELLEVSQHIKMRMGGRVDFEE [CABP4]
protein stability index: 4.08
--
input.sequence: PQVFVSNKINAGMYILSPAVLRRI [GMPPB]
protein stability index: 2.06
--
input.sequence: FFEILRLFFPVIYDVKYLMKSCKN [CNOT7]
protein stability index: 2.87
--
input.sequence: LTLSGIKEDNSLLNQGFLQAKPEK [MYBL2]
protein stability index: 4.61
--
input.sequence: SPVTTSPTAATTQNPVLSKLLMAD [LCOR]
protein stability index: 4.44
--
input.sequence: LKPEKSYSFVLTNRGNSAGGLQHR [PTPRD]
protein stability index: 3.27
--
input.sequence: IVKKPKSMQCKVILLDGSEYTCDV [EPB41L3]
protein stability index: 2.23
--
input.sequence: TDKQPLSDAWTYCISKNEWIQFNH [KLHDC2]
protein stability index: 2.67
--
input.sequence: DPLSLLDDSKFPIEDTPLVPVSFI [PCDHGA10]
protein stability index: 2.97
--
input.sequence: GLLNDTSAPHLENSGHTIFNDPFF [KCNA4]
protein stability index: 4.28
--
input.sequence: ETTSQQERLQAIAEKRKRQAEIEN [PALM]
protein stability index: 5.06
--
input.sequence: SETPKSQVGTLLFRSRSRLTHLSL [CDC25B]
protein stability index: 2.53
--
input.sequence: EAQTSGKERLLLSAAVPAGQTYVD [CHIT1]
protein stability index: 4.3
--
input.sequence: EEALENGPKESLPVIAAPSMWTRP [ACBD3]
protein stability index: 4.47
--
input.sequence: PSPDMECADVPLLTPSSKEMMSQA [ETS1]
protein stability index: 5.2
--
input.sequence: DPDEEHLKKSSQVPRTEAPAPASS [PDLIM7]
protein stability index: 5.5
--
input.sequence: KALYETELADARRALDDTARERAK [LMNB1]
protein stability index: 5.22
--
input.sequence: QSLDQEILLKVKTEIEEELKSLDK [BCL2L13]
protein stability index: 4.93
--
input.sequence: CGYFQVVNYTQGLWEKVMPSRYAA [SLC19A2]
protein stability index: 2.46
--
input.sequence: IMNFIDIVAIIPYFITLGTEIAEQ [KCNA1]
protein stability index: 2.89
--
input.sequence: IRESRLFGAVVRWAEAECQRQQLP [BTBD1]
protein stability index: 2.46
--
input.sequence: EVAAKNQSLEGDTTKGTSEMSEKR [MLH1]
protein stability index: 5.46
--
input.sequence: DLEELSLGPRDAGTRGRLESAQAT [ARFIP2]
protein stability index: 5.06
--
input.sequence: GCQVSPEGYAHLTHLLMGLASGRI [HDAC6]
protein stability index: 2.57
--
input.sequence: LACLHVACVVQQKDARQWFAELSV [CCNC]
protein stability index: 3.28
--
input.sequence: FFEKPDYDYLRKLFTDLFDRKGYM [CSNK1G3]
protein stability index: 2.5
--
input.sequence: PVPAFQSDGTDEPESKEPVEKEEE [SMG5]
protein stability index: 5.56
--
input.sequence: IMSRVNAYQQGVGYQMLGNVVTIG [PHTF1]
protein stability index: 2.31
--
input.sequence: PQEPRPPKRATKPKKAPKREKSAP [CPXM2]
protein stability index: 5.42
--
input.sequence: DLALDLGPQSRELTLKVLRSSSCG [C2CD2L]
protein stability index: 3.62
--
input.sequence: LRLADEFGVAVVITNQVVAQVDGA [RAD51]
protein stability index: 2.1
--
input.sequence: SEIIQITTGSKELDKLLQGGIETG [RAD51]
protein stability index: 4.3
